Recorded values, source PubChem BioAssay.

assay_summary: ovarian cancer cell viability with rucaparib, profiling panel, oncology-focused library, rucaparib conditional (AID 1508598)
run_conditions: patient-derived ovarian cancer cells, CellTiter-Glo viability, 144 h; at 0.0195 µM; OCI-P5x cells; without rucaparib
Calls of active or inactive are those of the source.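 The calls were made as follows: active = normalized viability below 100% at a tested concentration; inactive = the rest.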
The reply should be one of these categories: y (active), n (inactive)

INPUT: Could you check what this test reported for Cc1c(N)nc([C@H](CC(N)=O)NC[C@@H](N)C(N)=O)nc1C(=O)N[C@H](C(=O)N[C@@H](C)[C@H](O)[C@@H](C)C(=O)N[C@@H](C(=O)NCCc1nc(-c2nc(C(=O)NCCC[S+](C)C)cs2)cs1)[C@@H](C)O)C(O[C@H]1O[C@H](CO)[C@H](O)[C@@H](O)[C@H]1O[C@H]1O[C@H](CO)[C@@H](O)[C@H](OC(N)=O)[C@@H]1O)c1cnc[nH]1 (some centres undefined) ?
OUTPUT: y

INPUT: Could you check what this test reported for Cn1cc(C2=C(c3cn(C4CCN(Cc5ccccn5)CC4)c4ccccc34)C(=O)NC2=O)c2ccccc21 ?
OUTPUT: y

INPUT: Could you check what this test reported for Cn1c(CCCC(=O)O)nc2cc(N(CCCl)CCCl)ccc21 ?
OUTPUT: n

INPUT: Could you check what this test reported for O=S(=O)(CC1CS1)c1ccc(Oc2ccccc2)cc1 (centres undefined) ?
OUTPUT: y
